Biological target: Cytochrome P450 2C9 (Homo sapiens)
Sequence (P11712 whole entry): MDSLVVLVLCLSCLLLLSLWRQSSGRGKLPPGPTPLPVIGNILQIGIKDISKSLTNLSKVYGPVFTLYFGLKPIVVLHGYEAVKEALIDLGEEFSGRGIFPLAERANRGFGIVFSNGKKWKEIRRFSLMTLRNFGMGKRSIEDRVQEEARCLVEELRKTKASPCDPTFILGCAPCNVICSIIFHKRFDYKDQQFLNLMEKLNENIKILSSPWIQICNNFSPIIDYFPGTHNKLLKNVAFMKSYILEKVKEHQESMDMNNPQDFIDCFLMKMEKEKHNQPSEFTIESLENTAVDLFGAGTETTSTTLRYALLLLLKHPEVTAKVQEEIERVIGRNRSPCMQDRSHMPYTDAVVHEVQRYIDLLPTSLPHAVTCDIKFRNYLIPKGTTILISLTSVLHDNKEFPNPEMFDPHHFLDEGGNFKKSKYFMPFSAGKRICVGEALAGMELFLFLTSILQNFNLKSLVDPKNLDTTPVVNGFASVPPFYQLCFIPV
pIC50: −log10 of the molar value.
measurement.label: pIC50

| smiles.record | measurement.label | observed |
| --- | --- | --- |
| Cc1nsc(-c2nnc3n2CCN(C(=O)c2ccc(F)cc2)C3(C)C)n1 | pIC50 | 4.92 |
| Cc1noc(-c2nnc3n2CCN(C(=O)c2ccc(F)cc2)[C@@H]3C)n1 | pIC50 | 4.38 |

====

Assay: Volume of distribution at steady state in rat at 1 mg/kg, iv
Conditions: in vivo

| smiles.record | Vd |
| --- | --- |
| Cc1nsc(-c2nnc3n2CCN(C(=O)c2ccc(F)cc2)[C@@H]3C)n1 | 0.6 L/kg |

====

Assay: Distribution coefficient, log D of the compound at pH 7.4
Assay type: physicochemical
Settings: octanol/water
Each entry below lists one item and its recorded logD value.

| smiles.record | logD |
| --- | --- |
| Cc1nsc(-c2nnc3n2CCN(C(=O)c2ccc(F)cc2)C3(C)C)n1 | 2 |
| C[C@@H]1c2nnc(-c3ncns3)n2CCN1C(=O)c1ccc(F)cc1 | 1.1 |
| Cc1noc(-c2nnc3n2CCN(C(=O)c2ccc(F)cc2)[C@@H]3C)n1 | 0.7 |
| CC(C)c1noc(-c2nnc3n2CCN(C(=O)c2ccc(F)cc2)[C@@H]3C)n1 | 1.7 |
| Cc1nnc(-c2nnc3n2CCN(C(=O)c2ccc(F)cc2)[C@@H]3C)s1 | 0.8 |
| C[C@@H]1c2nnc(-c3csc(-c4ccc(F)cc4F)n3)n2CCN1C(=O)c1ccc(-c2cccs2)cc1 | 5 |

====

Assay: Unbound fraction in rat brain at 1 mg/kg after 60 mins

| smiles.record | fraction unbound at 1 h |
| --- | --- |
| Cc1nc(-c2nnc3n2CCN(C(=O)c2ccc(-c4cccs4)cc2)[C@@H]3C)cs1 | 0.028 |

====

A collection of compounds and their measured IC50
Molecular target: Cytochrome P450 1A2 (Homo sapiens)
Sequence (P05177 whole entry): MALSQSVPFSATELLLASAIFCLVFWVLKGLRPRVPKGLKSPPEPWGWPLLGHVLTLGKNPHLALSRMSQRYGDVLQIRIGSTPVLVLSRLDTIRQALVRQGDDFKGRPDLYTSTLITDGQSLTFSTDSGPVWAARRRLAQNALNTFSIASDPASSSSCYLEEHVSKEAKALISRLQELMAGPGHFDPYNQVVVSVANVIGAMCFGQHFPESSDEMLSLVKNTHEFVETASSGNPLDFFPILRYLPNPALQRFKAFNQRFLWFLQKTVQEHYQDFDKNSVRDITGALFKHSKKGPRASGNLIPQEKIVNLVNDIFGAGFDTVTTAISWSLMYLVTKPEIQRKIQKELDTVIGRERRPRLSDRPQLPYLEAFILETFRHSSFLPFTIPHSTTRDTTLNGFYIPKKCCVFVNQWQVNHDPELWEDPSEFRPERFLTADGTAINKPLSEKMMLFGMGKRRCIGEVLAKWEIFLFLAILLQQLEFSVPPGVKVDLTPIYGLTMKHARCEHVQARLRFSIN
measurement.label: IC50 (µM)

| smiles.record | tested.system | observed |
| --- | --- | --- |
| Cc1noc(-c2nnc3n2CCN(C(=O)c2ccc(F)cc2)[C@@H]3C)n1 | Cytochrome P450 1A2 (Homo sapiens) | 86 |
| Cc1nsc(-c2nnc3n2CCN(C(=O)c2ccc(F)cc2)C3(C)C)n1 | Cytochrome P450 1A2 (Homo sapiens) | 51 |
